Catalogue of pIC50 values
molecular target: human LPA1 (Homo sapiens, UniProt Q92633); construct: expressed in transfected cells; host or cells: Chinese hamster ovary (CHO) cells; experiment: LPA1 functional antagonist assay (LPA-induced calcium flux in CHO cells overexpressing human LPA1); format: cell-based; conditions: inhibition of calcium flux induced by 10 nM LPA, CHO cells overexpressing human LPA1; read-out: hLPA1 IC50
Sequence (Q92633 whole entry): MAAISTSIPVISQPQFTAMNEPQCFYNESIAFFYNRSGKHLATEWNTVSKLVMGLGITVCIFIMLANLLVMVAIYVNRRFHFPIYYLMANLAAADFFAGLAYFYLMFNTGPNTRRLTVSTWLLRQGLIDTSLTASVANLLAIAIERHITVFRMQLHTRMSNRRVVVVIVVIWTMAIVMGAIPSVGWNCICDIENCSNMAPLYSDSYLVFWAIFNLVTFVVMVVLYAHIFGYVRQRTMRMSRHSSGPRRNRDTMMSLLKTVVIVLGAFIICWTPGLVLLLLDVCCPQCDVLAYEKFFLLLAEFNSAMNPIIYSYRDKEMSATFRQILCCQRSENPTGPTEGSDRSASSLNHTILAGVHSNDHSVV
Kindly note that pIC50 refers to -log10 of the concentration in mol/L and answer with the value alone.

Worked examples, 3 compounds total:
In: Give its pIC50 value. Item: Cc1nc(-c2nnn(C)c2CNc2nnc(C3CCCCC3)o2)ccc1O[C@H]1CCC[C@H](C(=O)O)C1
Out: 6.69

In: Please look up its pIC50: Cc1nc(-c2nnn(C)c2CNc2noc(CCC3CC3)n2)ccc1O[C@H]1CCC[C@H](C(=O)O)C1
Out: 8.22

In: Which value of pIC50 has been reported for CC(C)c1nc(NCc2c(-c3ccc(O[C@H]4CCC[C@H](C(=O)O)C4)cn3)nnn2C)no1 in the records?
Out: 6.21

Let us move to another entry and its pIC50.
In: Could you tell me which pIC50 is on file for Cc1nc(-c2nnn(C)c2CNc2nc(C3CC3)ns2)ccc1O[C@H]1CCC[C@H](C(=O)O)C1 ?
Out: 6.29

----------
Reported values of IC50 for individual entries
molecular target: human LPA1 (Homo sapiens, UniProt Q92633); construct: expressed in transfected cells; host or cells: Chinese hamster ovary (CHO) cells; test: LPA1 functional antagonist assay (LPA-induced calcium flux in CHO cells overexpressing human LPA1); format: cell-based; settings: inhibition of calcium flux induced by 10 nM LPA, CHO cells overexpressing human LPA1; read-out: hLPA1 IC50
Please state the figure in nM; there is no need to write the unit.

In: Which measured IC50 belongs to Cn1nnc(-c2ccc(O[C@H]3CCC[C@H](C(=O)O)C3)c(C#N)n2)c1Cn1cc(CC2CC2)nn1 , tested on human LPA1 (Homo sapiens, UniProt Q92633)?
Out: 110

In: Given the entry Cc1nc(-c2nnn(C)c2COc2nnn(CC3CC3)n2)ccc1O[C@H]1CCC[C@H](C(=O)O)C1 , what IC50 was observed with human LPA1 (Homo sapiens, UniProt Q92633)?
Out: 24

In: Request - read-out IC50 | tested on human LPA1 (Homo sapiens, UniProt Q92633) | molecule Cc1nc(-c2nnn(C)c2Cn2nnc(OCC3CC(F)(F)C3)n2)ccc1O[C@H]1CCC[C@H](C(=O)O)C1
Out: 43

In: Recall the recorded IC50 for CCCCc1nnn(Cc2c(-c3ccc(O[C@H]4CCC[C@H](C(=O)O)C4)c(C)n3)nnn2C)n1 with human LPA1 (Homo sapiens, UniProt Q92633) and state it.
Out: 34

In: Find IC50 (human LPA1 (Homo sapiens, UniProt Q92633)) for the entry CSc1nnn(Cc2c(-c3ccc(O[C@H]4CCC[C@H](C(=O)O)C4)c(C)n3)nnn2C)n1
Out: 800

Now for the molecule whose IC50 we want.
In: What IC50 appears in the records for this molecule with human LPA1 (Homo sapiens, UniProt Q92633)? Cc1nc(-c2nnn(C)c2CNc2noc(C3CC(F)(F)C3)n2)ccc1O[C@H]1CCC[C@H](C(=O)O)C1
Out: 46.1
